Catalogue of remaining activity at 1 µM values
- Target system: PHK (Homo sapiens)
- Sequence (Q16816 whole entry): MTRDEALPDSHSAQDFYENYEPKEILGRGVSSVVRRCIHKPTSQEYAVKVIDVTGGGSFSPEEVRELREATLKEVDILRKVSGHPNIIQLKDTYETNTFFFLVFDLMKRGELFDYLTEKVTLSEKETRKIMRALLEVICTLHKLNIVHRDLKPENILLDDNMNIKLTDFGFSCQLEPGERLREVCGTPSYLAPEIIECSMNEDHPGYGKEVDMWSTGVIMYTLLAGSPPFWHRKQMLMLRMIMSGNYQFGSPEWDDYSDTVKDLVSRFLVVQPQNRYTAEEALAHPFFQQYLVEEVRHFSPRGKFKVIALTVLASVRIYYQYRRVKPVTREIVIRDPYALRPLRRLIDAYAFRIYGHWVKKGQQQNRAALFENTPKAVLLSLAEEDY
- Protocol text: Kinase profiling (radiometric filter-binding)
- Assay type: biochemical
- Run conditions: 1 µM inhibitor, read-out: Residual activity, %
Square brackets hold non-standard residues; d marks the D form. Peptide text beside a SMILES is read from it. * marks the point of attachment. X3 = O=C(CCCCCNCc1nc2c(sc3cc(Br)cnc32)c(=O)[nH]1)*
Endpoint: remaining activity at 1 µM

# Compound, Experimental value
rows = [
    ("N=C(N)NCCC[C@@H](NC(=O)CCCCCNC(=O)Cn1cnc2c(I)c(I)c(I)c(I)c21)C(=O)N[C@H](CCCNC(=N)N)C(=O)N[C@H](CCCNC(=N)N)C(=O)N[C@H](CCCNC(=N)N)C(=O)N[C@H](CCCNC(=N)N)C(=O)N[C@H](CCCNC(=N)N)C(=O)N[C@H](CCCCN)C(N)=O [ARC-3125, TIBI-CH2-C(=O)-Ahx-(D-Arg)6-D-Lys-NH2]", "104%"),
    ("N=C(N)NCCC[C@@H](NC(=O)CNC(=O)[C@@H](CCCNC(=N)N)NC(=O)[C@@H](CCCNC(=N)N)NC(=O)CCCCCCCNCc1nc2c(sc3ccc(Br)cc32)c(=O)[nH]1)C(=O)N[C@H](CCCCN)C(N)=O [Compound 2, BBTP-Aoc-(D-Arg)2-Gly-D-Arg-D-Lys-NH2]", "98%"),
    ("N=C(N)NCCC[C@@H](NC(=O)CNC(=O)[C@@H](CCCNC(=N)N)NC(=O)[C@@H](CCCNC(=N)N)NC(=O)CCCCCCCNCc1nc2c(sc3cc(Br)cnc32)c(=O)[nH]1)C(=O)N[C@H](CCCCN)C(N)=O [Compound 1, BPTP-Aoc-(D-Arg)2-Gly-D-Arg-D-Lys-NH2]", "109%"),
    ("N=C(N)NCCC[C@@H](NC(=O)CNC(=O)[C@@H](CCCNC(=N)N)NC(=O)[C@@H](CCCNC(=N)N)NC(=O)Cn1cc(CNCc2nc3c(sc4ccc(Br)cc43)c(=O)[nH]2)nn1)C(=O)N[C@H](CCCCN)C(N)=O [Compound 3, BBTP-Amt-(D-Arg)2-Gly-D-Arg-D-Lys-NH2]", "78%"),
    ("N=C(N)NCCC[C@@H](NC(=O)CCCCCNCc1nc2c(sc3cc(Br)cnc32)c(=O)[nH]1)C(=O)N[C@H](CCCNC(=N)N)C(=O)N[C@H](CCCNC(=N)N)C(=O)N[C@H](CCCNC(=N)N)C(=O)N[C@H](CCCNC(=N)N)C(=O)N[C@H](CCCNC(=N)N)C(=O)N[C@H](CCCCN)C(N)=O [ARC-3126, BPTP-Ahx-(D-Arg)6-D-Lys-NH2] (X3-[dR][dR][dR][dR][dR][dR][dK]-NH2)", "128%"),
]

---

- Target system: Src (Homo sapiens, UniProt P12931)
- Sequence (P12931 whole entry): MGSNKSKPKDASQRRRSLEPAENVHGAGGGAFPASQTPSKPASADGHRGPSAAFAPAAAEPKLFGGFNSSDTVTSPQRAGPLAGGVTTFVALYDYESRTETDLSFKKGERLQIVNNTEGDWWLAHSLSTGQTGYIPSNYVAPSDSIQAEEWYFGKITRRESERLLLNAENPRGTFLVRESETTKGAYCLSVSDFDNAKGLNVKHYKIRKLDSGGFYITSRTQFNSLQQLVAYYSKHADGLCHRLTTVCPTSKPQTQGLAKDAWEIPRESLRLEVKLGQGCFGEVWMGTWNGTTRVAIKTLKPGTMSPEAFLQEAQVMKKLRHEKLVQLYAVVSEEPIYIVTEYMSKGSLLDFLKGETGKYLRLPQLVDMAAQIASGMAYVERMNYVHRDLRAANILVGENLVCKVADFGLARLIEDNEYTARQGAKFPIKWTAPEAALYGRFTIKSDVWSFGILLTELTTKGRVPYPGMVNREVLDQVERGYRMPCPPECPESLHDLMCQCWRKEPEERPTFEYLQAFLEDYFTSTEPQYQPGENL
- Protocol text: Kinase profiling (radiometric filter-binding)
- Format: biochemical
- Run conditions: 1 µM inhibitor, read-out: Residual activity, %
Square brackets hold non-standard residues; d marks the D form. Peptide text beside a SMILES is read from it. * marks the point of attachment. X3 = O=C(CCCCCNCc1nc2c(sc3cc(Br)cnc32)c(=O)[nH]1)*
Measured remaining activity at 1 µM values are reported for all entries that follow.

# Compound, Units, remaining activity at 1 µM
rows = [
    ("N=C(N)NCCC[C@@H](NC(=O)CNC(=O)[C@@H](CCCNC(=N)N)NC(=O)[C@@H](CCCNC(=N)N)NC(=O)CCCCCCCNCc1nc2c(sc3cc(Br)cnc32)c(=O)[nH]1)C(=O)N[C@H](CCCCN)C(N)=O", "%", 97),
    ("N=C(N)NCCC[C@@H](NC(=O)CNC(=O)[C@@H](CCCNC(=N)N)NC(=O)[C@@H](CCCNC(=N)N)NC(=O)Cn1cc(CNCc2nc3c(sc4ccc(Br)cc43)c(=O)[nH]2)nn1)C(=O)N[C@H](CCCCN)C(N)=O", "%", 119),
    ("N=C(N)NCCC[C@@H](NC(=O)CCCCCNCc1nc2c(sc3cc(Br)cnc32)c(=O)[nH]1)C(=O)N[C@H](CCCNC(=N)N)C(=O)N[C@H](CCCNC(=N)N)C(=O)N[C@H](CCCNC(=N)N)C(=O)N[C@H](CCCNC(=N)N)C(=O)N[C@H](CCCNC(=N)N)C(=O)N[C@H](CCCCN)C(N)=O [ARC-3126, BPTP-Ahx-(D-Arg)6-D-Lys-NH2] (X3-[dR][dR][dR][dR][dR][dR][dK]-NH2)", "%", 103),
    ("N=C(N)NCCC[C@@H](NC(=O)CNC(=O)[C@@H](CCCNC(=N)N)NC(=O)[C@@H](CCCNC(=N)N)NC(=O)CCCCCCCNCc1nc2c(sc3ccc(Br)cc32)c(=O)[nH]1)C(=O)N[C@H](CCCCN)C(N)=O", "%", 110),
    ("N=C(N)NCCC[C@@H](NC(=O)CCCCCNC(=O)Cn1cnc2c(I)c(I)c(I)c(I)c21)C(=O)N[C@H](CCCNC(=N)N)C(=O)N[C@H](CCCNC(=N)N)C(=O)N[C@H](CCCNC(=N)N)C(=O)N[C@H](CCCNC(=N)N)C(=O)N[C@H](CCCNC(=N)N)C(=O)N[C@H](CCCCN)C(N)=O", "%", 153),
]
